Ref: PubChem BioAssay (NCI)

# System: SR leukemia
# Experimental details: NCI-60 one-dose screen, 48 h (100 = growth as untreated, 0 = no growth, -100 = all killed)
# Test context: 10 µM unless noted
About 83,000 compounds went through this panel and 20% of them were active in at least one assay; those are over-represented in the sample as a whole.
// classify: if (growth < 30%) TRUE else FALSE

>>> classification("COc1cc(/C=C/C(=O)/C=C/c2cc3ccc(Cl)cc3[nH]c2=O)ccc1O")
"TRUE"
>>> classification("CCCCOc1nc2ccc(C)cc2cc1/C=C/C(=O)/C=C/c1ccc2c(c1)OCO2")
"FALSE"
>>> classification("Cc1ccc(SC2c3ccc(C)cc3Oc3nc(N)c(C#N)c(N)c32)cc1 (centres undefined)")
"TRUE"
>>> classification("COC(=O)c1cncc(C(=O)Nc2ccc(-n3cnc4ccccc43)cc2)c1")
"FALSE"
>>> classification("S=C(Nc1ccc(Cl)cc1)c1ccccn1")
"FALSE"
>>> classification("Cc1ccc(C(=O)O)o1")
"FALSE"
>>> classification("OCCNc1nc(NCCO)nc(Nc2ccc(C3=NN(c4ccc(Cl)cc4)C(c4ccc(Cl)cc4)C3)cc2)n1 (centres undefined)")
"TRUE"
>>> classification("CCOC(=O)NC(Cc1ccccc1)c1ccccc1 (centres undefined)")
"FALSE"
>>> classification("N#Cc1c(-c2ccc(F)cc2)nc(N=Nc2c(O)[nH]c3ccc(Cl)cc23)nc1N1CCOCC1")
"FALSE"
>>> classification("C=C1C(=O)O[C@H]2[C@H]1CC/C(COC(=O)c1cccnc1N)=C\\CC[C@@]1(C)O[C@@H]21")
"TRUE"
>>> classification("Cc1cccc(NC(=O)c2sc3nc4c(cc3c2N)CN(Cc2ccccc2)CC4)c1C")
"TRUE"
>>> classification("COc1ccc(/C=C(/C(=O)N2CCN(Cc3ccccc3)CC2)c2cc(OC)c(OC)c(OC)c2)cc1O")
"TRUE"
>>> classification("COc1ccc(Cl)c([N+](=O)[O-])c1")
"FALSE"
>>> classification("COc1ccc(-c2nnc(N3CCN(C(=O)CN4CCN(c5ccccc5)CC4)CC3)nc2-c2ccc(OC)cc2)cc1")
"TRUE"
>>> classification("CS(=O)(=O)O[C@@H]1C(=O)N(c2cc3c4ccccc4ccc3c3ccccc23)[C@H]1c1ccc(F)cn1")
"TRUE"
>>> classification("Cc1cc(C)cc(Nc2nccc(-c3c(-c4ccc(F)cc4)ncn3C3CCNCC3)n2)c1")
"TRUE"
>>> classification("NS(=O)(=O)c1ccc(-n2ncc(NC(=O)Nc3ccc(S(=O)(=O)Nc4nccs4)cc3)c2-c2ccccc2)cc1")
"FALSE"
>>> classification("CNS(=O)(=O)c1cccc(-c2ccc3c4c(n(C)c(=O)c3c2)-c2ccccc2C4=O)c1")
"TRUE"
>>> classification("N#Cc1c(-c2ccc(F)cc2)nc(N/N=C/c2c[nH]c3ccccc23)nc1N1CCOCC1")
"TRUE"
>>> classification("Cc1ccc(C(=O)/C(=C/c2ccc([N+](=O)[O-])cc2)S(=O)Cc2ccccc2)cc1 (centres undefined)")
"TRUE"
>>> classification("Nc1ccc(C(=O)Nc2cccc(C(=O)Nc3ccc4c(O)c(N=Nc5ccc(N=Nc6ccc(S(=O)(=O)O)cc6)cc5)c(S(=O)(=O)O)cc4c3)c2)cc1")
"FALSE"
>>> classification("C=C1C(=O)O[C@H]2[C@H]1CC/C(COC(=O)CCC(=O)OC/C1=C/CC[C@@]3(C)O[C@H]3[C@H]3OC(=O)C(=C)[C@@H]3CC1)=C\\CC[C@@]1(C)O[C@@H]21")
"TRUE"
>>> classification("CN1CCN(C(=O)[C@@]2(C)CC[C@]3(C)CC[C@]4(C)C(=CC[C@@H]5[C@@]6(C)CC[C@H](OC(=O)c7cccnc7)C(C)(C)[C@@H]6CC[C@]54C)[C@@H]3C2)CC1")
"TRUE"
>>> classification("COCCOCCOCc1n(Cc2ccc3ccccc3n2)c2ccccc2[n+]1Cc1ccc2ccccc2n1")
"TRUE"
>>> classification("S=C(Nc1ccccc1)c1ccccn1")
"FALSE"
>>> classification("C#C[C@@]1(O)[C@@H](CO)O[C@@H](n2cc(I)c3c(N)ncnc32)[C@@H]1O")
"TRUE"
>>> classification("OCCNc1nc(NCCO)nc(Nc2ccc(C3=NN(c4cc(Cl)cc(Cl)c4)C(c4ccccc4)C3)cc2)n1 (centres undefined)")
"TRUE"
>>> classification("CC1(C)Cc2c(Br)c(Br)c(Br)c(OCC(O)CN3CCOCC3)c2O1 (centres undefined)")
"TRUE"
>>> classification("CC(C)(C)c1ccc2oc(=O)n(SC(Cl)(Cl)Cl)c2c1")
"FALSE"
>>> classification("COc1ccccc1C(=O)/C=C/c1cc2cccc(OC)c2[nH]c1=O")
"TRUE"
>>> classification("O=C(O)CCNC1CCCCC1")
"FALSE"
>>> classification("Cc1nc2sc(C(=O)Nc3ccccc3Cl)c(N)c2cc1C(C)O (centres undefined)")
"FALSE"
>>> classification("O=C(O)c1cn(C2CC2)c2cc(N3CCN(Cc4nnc(Nc5ccccc5)o4)CC3)c(F)cc2c1=O")
"FALSE"
>>> classification("CCC1S/C(=N\\N=C(/C)c2ccc[nH]2)N(c2ccccc2)C1=O (centres undefined)")
"FALSE"
>>> classification("Cc1c(Cl)cccc1NC(=O)c1sc2nc3c(cc2c1N)COCC3")
"TRUE"
>>> classification("CCOC(=O)C(=Cc1c(-c2ccccc2)[nH]c2ccccc12)C(=O)OCC")
"TRUE"
>>> classification("COc1ccc(/C=C/C(=O)Nc2ncnc3nc[nH]c23)cc1")
"FALSE"
>>> classification("O=C(NCc1ccccc1)c1ccc2c(c1)NC(=O)[C@@H]1CCCN21")
"FALSE"
